# Test name: in vitro
# Condition summary: human
Measured parameter: viability at 5 µM

CCCN(CCC)C(=O)C(Cc1ccc(OCCCN2CCN(C)CC2)cc1)NC(=O)c1ccc(Br)cc1 (centres unmarked) ... 141%
O=c1[nH]c2cc(Cl)ccc2n1C1CCN(CCCC(c2ccc(F)cc2)c2ccc(F)cc2)CC1 ... 121%
OCCN1CCN(CCCN2c3ccccc3Sc3ccc(Cl)cc32)CC1 ... 181%
CC(C(O)c1ccccc1)N(C)CC=C1c2ccccc2CCc2ccccc21 (centres unmarked) ... 122%

Query viability at 5 µM for Cc1ccc([C@@H](CCNCC2CCCCC2)[C@@H]2CCOC(C)(C)C2)cc1F
119%

Fill in reported viability at 5 µM for this entry: COc1cc2c(cc1NS(=O)(=O)c1ccc(-c3ccc(Cl)s3)cc1)CCN(C)CC2
133%

Tell us which viability at 5 µM value is on record for CC(Cc1ccccc1)NCCC(c1ccccc1)c1ccccc1 (centres unmarked)
140%

Provide one value: measured viability at 5 µM of Cc1cc(OCCN(C)C)c(C(C)C)cc1OC(=O)CC(C)(C)SN=O
118%

// provenance: paper PMC10916382
